Tested on: CP250
Assay: qHTS profiling for inhibitors of Plasmodium falciparum proliferation (AID 504749); note: nearly all actives have a fitted effect of over 60% in size
Conditions: P. falciparum in erythrocytes, SYBR Green DNA, 72 h; series mostly up to 28.7 µM
Results filed as inconclusive are left out. Calls of active or inactive are those of the source. Calls come from the whole dose curve; as a rule, active = well fitted inhibition curve with a large enough effect; inconclusive = small, poorly fitted or top-dose-only effect; inactive = flat fitted curve, though single readings scatter.
Can you answer with just one of these options? active, inactive

Below are worked cases with known answers.
Task: Which outcome was entered for the compound NC(=O)Oc1ccc(Cc2ccccc2)cc1 in this test?
Result: inactive

Task: Which outcome was entered for the compound [O]=[Bi][O][Bi]=[O] in this test?
Result: inactive

Task: Which outcome was entered for the compound Cc1ncc(COP(=O)(O)O)c(CN)c1O in this test?
Result: inactive

Task: Which outcome was entered for the compound O=C(CCCN1CCN2CCCC2C1)c1ccc(F)cc1 (stereo not drawn) in this test?
Result: inactive

Task: Which outcome was entered for the compound Cc1ccc(S(=O)(=O)O)cc1C in this test?
Result: inactive

Further cases:
Task: Which outcome was entered for the compound O=C(O)c1cc(N=Nc2ccc(O)c(C(=O)O)c2)ccc1O in this test?
Result: inactive

Task: Which outcome was entered for the compound CC(C)CCCCCCc1ccc(O)cc1 in this test?
Result: inactive

Task: Which outcome was entered for the compound CCCCCCCCCCCCCCCCCC(=O)OC[C@@H](O)[C@H]1OC[C@H](O)[C@H]1O in this test?
Result: inactive

Task: Which outcome was entered for the compound CC/C=C\C/C=C\C/C=C\C/C=C\C/C=C\CCCC(=O)O in this test?
Result: inactive

----------
Test: Cell Viability - HUV-EC-C (AID 542);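 note: cells exposed to compound for 40 hours; nearly all actives have a fitted effect of over 35% in size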
Conditions: HUV-EC-C endothelial cell viability, qHTS; series mostly up to 92.2 µM
Inconclusive results are not listed. The source made the active and inactive calls. Calls come from the whole dose curve; as a rule, active = well fitted cell-killing curve with a large enough effect; inconclusive = small, poorly fitted or top-dose-only effect, or effect the other way; inactive = flat fitted curve, though single readings scatter.
Can you answer with just one of these options? active, inactive

Below are worked cases with known answers.
Task: Which outcome was entered for the compound Cc1ccc(S(=O)(=O)O)cc1C in this test?
Result: inactive

Task: Which outcome was entered for the compound NC(N)=O in this test?
Result: inactive

Task: Which outcome was entered for the compound CCCCO in this test?
Result: inactive

Task: Which outcome was entered for the compound CC(C)O in this test?
Result: inactive

Task: Which outcome was entered for the compound ClC(Cl)Cl in this test?
Result: inactive

Task: Which outcome was entered for the compound COC(=O)c1ccccc1O in this test?
Result: inactive

Task: Which outcome was entered for the compound O=P(O)(O)O in this test?
Result: inactive

Task: Which outcome was entered for the compound OB(O)O in this test?
Result: inactive

Further cases:
Task: Which outcome was entered for the compound [O-][N+](=Nc1ccccc1)c1ccccc1 in this test?
Result: inactive

Task: Which outcome was entered for the compound CC/C=C\C/C=C\C/C=C\CCCCCCCC(=O)O in this test?
Result: inactive

Task: Which outcome was entered for the compound OCC(O)CO in this test?
Result: inactive

Task: Which outcome was entered for the compound CC1=CCC2CC1C2(C)C (stereo unspecified) in this test?
Result: inactive

Task: Which outcome was entered for the compound Oc1ccc(/C=C/c2cc(O)cc(O)c2)cc1 in this test?
Result: inactive

----------
Assay: MultiTox-Fluor Cytotoxicity Assay - LYMP1-003 - Live Cells (AID 962);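 note: cells exposed to compound for 16 hours at 37 °C; cytotoxic hits lower the live-cell protease signal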
Conditions: LYMP1-003 lymphoblastoid cells, MultiTox-Fluor live-cell protease fluorescence; series mostly up to 92.2 µM
Activity calls are given as the source filed them. The call rests on the fitted dose curve; in most records, active means well fitted cell-killing curve with a large enough effect; inconclusive means small, poorly fitted or top-dose-only effect; inactive means flat fitted curve, though single readings scatter.
Quantity measured: outcome

Task: Recorded outcome of NC(N)=O , please.
Result: inactive

Task: Recorded outcome of Nc1ccc(N=Nc2ccccc2)c(N)n1 , please.
Result: inactive

Task: Recorded outcome of O=c1n(CC2CO2)c(=O)n(CC2CO2)c(=O)n1CC1CO1 (centres undefined) , please.
Result: inactive

Task: Recorded outcome of CC1=CC(=O)NS(=O)(=O)O1 , please.
Result: inactive

Task: Recorded outcome of [O-][N+](=Nc1ccccc1)c1ccccc1 , please.
Result: inactive

Task: Recorded outcome of C/C=C/C=C/C(=O)O , please.
Result: inactive

Task: Recorded outcome of C[C@H](CCC(=O)O)[C@H]1CC[C@H]2[C@@H]3CC[C@@H]4C[C@H](O)CC[C@]4(C)[C@H]3C[C@H](O)[C@]12C , please.
Result: inactive

Task: Recorded outcome of O=P(O)(O)O , please.
Result: inactive

Further cases:
Task: Recorded outcome of OCl , please.
Result: inactive
